Provenance of the data: patent US10294207B2

assaySystem: IKKε (Homo sapiens, UniProt Q14164)
Construct: purchased Invitrogen PR8031B
Sequence (Q14164 whole entry): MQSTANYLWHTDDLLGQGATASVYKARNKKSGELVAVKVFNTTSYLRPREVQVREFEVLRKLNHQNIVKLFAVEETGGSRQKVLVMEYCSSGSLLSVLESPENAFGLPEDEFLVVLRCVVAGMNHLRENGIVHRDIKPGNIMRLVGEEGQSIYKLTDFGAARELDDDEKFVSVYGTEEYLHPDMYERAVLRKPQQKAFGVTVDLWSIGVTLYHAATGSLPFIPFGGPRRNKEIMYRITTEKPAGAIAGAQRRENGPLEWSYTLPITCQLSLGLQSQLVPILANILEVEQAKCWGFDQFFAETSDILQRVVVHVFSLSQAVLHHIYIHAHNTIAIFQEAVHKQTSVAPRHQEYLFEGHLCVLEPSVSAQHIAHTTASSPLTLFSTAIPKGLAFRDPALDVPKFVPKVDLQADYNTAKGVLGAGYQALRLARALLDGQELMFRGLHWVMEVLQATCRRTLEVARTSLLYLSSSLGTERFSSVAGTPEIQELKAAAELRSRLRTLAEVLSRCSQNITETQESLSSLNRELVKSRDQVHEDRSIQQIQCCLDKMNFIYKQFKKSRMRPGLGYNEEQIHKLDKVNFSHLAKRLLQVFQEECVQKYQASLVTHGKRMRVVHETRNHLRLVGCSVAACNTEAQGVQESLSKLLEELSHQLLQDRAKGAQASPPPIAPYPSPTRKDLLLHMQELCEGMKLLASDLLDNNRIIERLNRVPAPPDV
protocolDescription: IKKε inhibition, ADP-Glo Kinase Assay
Assay type: biochemical
measurementConditions: luminometer

molecule	IC50, µM
CNCCN(C)c1ccc(C(=O)Nc2n[nH]c3ccc(C(=O)NCc4cccs4)cc23)cc1 [Example 155]	0.094
CC[C@H](NC(=O)c1ccc2[nH]nc(NC(=O)c3ccc(N4CCN(C)CC4)cc3)c2c1)c1cccs1 [Example 111]	0.074
CN1CCN(c2ccc(C(=O)Nc3n[nH]c4ccc(NC(=O)Cc5cccs5)cc34)cc2)CC1 [Example 141]	0.38
O=C(Cc1cccs1)Nc1ccc2[nH]nc(NC(=O)c3ccc(N4CCOCC4)cc3)c2c1 [Example 144]	0.25
CN1CCN(c2ccc(C(=O)Nc3n[nH]c4ccc(C(=O)NC(c5ccccc5)C5CC5)cc34)cc2)CC1 (stereo not shown) [Example 197]	0.042
O=C(NCC1CCCC1)c1ccc2[nH]nc(NC(=O)c3ccc(N4CCOCC4)cc3)c2c1 [Example 91, 2,2,2-trifluoroacetate]	0.093
CCC(NC(=O)c1ccc2[nH]nc(NC(=O)c3ccc(N4CCN(C)CC4)cc3)c2c1)c1ccccc1 (stereo not shown) [Example 187]	0.018

* * *

assaySystem: TBK1 (Homo sapiens)
Construct: purchased Promega V3991
Sequence (Q9UHD2 1-729): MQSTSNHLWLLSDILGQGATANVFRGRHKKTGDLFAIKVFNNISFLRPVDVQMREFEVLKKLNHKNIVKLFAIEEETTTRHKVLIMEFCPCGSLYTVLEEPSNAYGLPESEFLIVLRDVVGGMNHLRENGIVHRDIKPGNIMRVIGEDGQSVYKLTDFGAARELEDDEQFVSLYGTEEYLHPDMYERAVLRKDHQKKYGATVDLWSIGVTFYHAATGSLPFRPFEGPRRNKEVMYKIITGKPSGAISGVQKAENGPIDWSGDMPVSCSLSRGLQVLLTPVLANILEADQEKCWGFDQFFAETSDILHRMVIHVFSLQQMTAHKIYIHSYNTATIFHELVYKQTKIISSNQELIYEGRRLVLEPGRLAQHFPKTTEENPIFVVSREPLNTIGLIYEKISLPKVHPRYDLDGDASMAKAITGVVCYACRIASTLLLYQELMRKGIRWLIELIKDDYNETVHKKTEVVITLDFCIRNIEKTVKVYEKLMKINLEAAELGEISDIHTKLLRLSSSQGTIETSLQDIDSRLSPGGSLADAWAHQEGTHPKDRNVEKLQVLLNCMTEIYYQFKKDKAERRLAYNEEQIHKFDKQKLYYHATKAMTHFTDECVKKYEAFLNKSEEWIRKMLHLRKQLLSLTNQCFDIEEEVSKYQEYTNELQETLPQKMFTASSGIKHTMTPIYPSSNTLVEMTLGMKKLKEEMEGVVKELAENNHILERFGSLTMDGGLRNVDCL
protocolDescription: TBK1 inhibition, ADP-Glo Kinase Assay
Type: biochemical
measurementConditions: luminometer
IC50 under 0.03 µM gets satisfied, anything at or over 0.03 µM gets not satisfied.

compound	assignedCategory
Cc1cc(C(=O)Nc2n[nH]c3ccc(C(=O)NCc4cccs4)cc23)ccc1N1CCN(C)CC1	satisfied
CCC(NC(=O)c1ccc2[nH]nc(NC(=O)c3ccc(N4CCC(OC)CC4)cc3)c2c1)c1cccs1 (stereo not shown)	satisfied
O=C(Nc1n[nH]c2ccc(C(=O)NC(c3ccccn3)C3CC3)cc12)c1ccc(N2CCOCC2)cc1 (stereo not shown)	not satisfied
CCC(NC(=O)c1ccc2[nH]nc(NC(=O)c3ccc(N4CCN[C@@H](C)C4)cc3)c2c1)c1cccs1 (stereo partly shown) [Example 97, 2,2,2-trifluoroacetate]	satisfied
Cc1cc(N2CCOCC2)ccc1C(=O)Nc1n[nH]c2ccc(C(=O)NCc3cccs3)cc12	satisfied
O=C(NCc1cccs1)c1ccc2[nH]nc(NC(=O)c3ccc(F)cc3)c2c1	not satisfied
O=C(NCc1cccs1)c1ccc2[nH]nc(NC(=O)c3ccc([N+](=O)[O-])cc3)c2c1	not satisfied
N#CC1(NC(=O)c2ccc3[nH]nc(NC(=O)c4ccc(F)cc4)c3c2)CC1	not satisfied
CCCCNC(=O)c1ccc2[nH]nc(NC(=O)c3ccc(F)cc3)c2c1	not satisfied
CC(NC(=O)c1ccc2[nH]nc(NC(=O)c3ccc(N4CCN(C)CC4)cc3)c2c1)c1ccccc1 (stereo not shown)	satisfied
CCC(NC(=O)c1ccc2[nH]nc(NC(=O)c3ccc(N4CCN(CC)CC4)cc3)c2c1)c1cccs1 (stereo not shown)	satisfied
Cc1ccc(CNC(=O)c2ccc3[nH]nc(NC(=O)c4ccc(N5CCN(C)CC5)cc4)c3c2)s1	not satisfied
CC[C@@H](NC(=O)c1ccc2[nH]nc(NC(=O)c3ccc(N4CCN(C)CC4)cc3)c2c1)c1ccccc1	satisfied
CC(C)CC(NC(=O)c1ccc2[nH]nc(NC(=O)c3ccc(N4CCOCC4)cc3)c2c1)c1cccs1 (stereo not shown)	not satisfied
CC(C)CCNc1ccc(C(=O)Nc2n[nH]c3ccc(C(=O)NCc4cccs4)cc23)cc1	not satisfied
